- assayedTarget: rabbit aortic rings (Oryctolagus cuniculus)
- Construct: The thoracic aorta was removed, cleaned of adherent fat and connective tissue and then cut into 3-mm ring segments; from tissue; host or cells: rabbit thoracic aorta rings, endothelium removed
- Sequence (P34976 whole entry): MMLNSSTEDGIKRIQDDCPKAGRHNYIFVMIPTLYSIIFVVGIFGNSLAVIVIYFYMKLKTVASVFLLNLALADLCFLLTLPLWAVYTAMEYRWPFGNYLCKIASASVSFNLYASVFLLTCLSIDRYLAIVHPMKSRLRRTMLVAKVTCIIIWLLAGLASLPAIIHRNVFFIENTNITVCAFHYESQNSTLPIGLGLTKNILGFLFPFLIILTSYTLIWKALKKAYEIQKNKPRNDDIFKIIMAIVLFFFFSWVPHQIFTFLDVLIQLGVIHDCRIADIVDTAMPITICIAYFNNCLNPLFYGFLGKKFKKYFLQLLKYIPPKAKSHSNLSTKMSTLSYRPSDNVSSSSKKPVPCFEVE
- protocolNotes: Assay B: In Vitro Vascular Smooth Muscle Response for AII
- Set-up: species or system rabbit (male New Zealand white)
- measurementParameters: rabbit aorta rings, two rabbits per antagonist; antagonist 10^-5 M, 5 minutes; AII contraction; Schild; read-out: pA2 (first of two values) (converted)
measuredMetric: Kb (nM)

Examples with answers:
- compound: "CCCCn1nc(C(F)(F)CCC)nc1Cc1ccc(-c2ccccc2-c2nnn[nH]2)nc1 [Example 21]"
  measuredMetric: "Kb"
  unitString: "nM"
  reported: 83.2
- compound: "CCCCn1nc(C(OCCC)OCCC)nc1Cc1ccc(-c2ccccc2-c2nnn[nH]2)nc1 [Example 28]"
  measuredMetric: "Kb"
  unitString: "nM"
  reported: 38.9

(A) CCCCn1nc(C(=O)N(C)C(C)(C)C)nc1Cc1ccc(-c2ccccc2-c2nnn[nH]2)nc1 [Example 22]
(B) CCCn1nc(C(F)(F)CC)nc1Cc1ccc(-c2ccccc2-c2nnn[nH]2)nc1 [Example 18]
Request: Dear colleague, could you let me know whether A or B has the lower recorded Kb? Thanks. Refer to your chosen entry by its label in the reply.
Response: A
(A: 30.2 nM, B: 83.2 nM)
